Target Entity: Tyrosinase (Agaricus bisporus)
Test Method Notes: Inhibition of mushroom tyrosinase assessed as reduction in dopachrome production using L-DOPA as substrate after 5 mins by spectrophotometric analysis
pIC50: −log10 of the molar value.
Endpoint: pIC50

1) O=C(c1ccc(C(F)(F)F)cc1C(F)(F)F)N1CCN(Cc2ccc(F)cc2)CC1    5.79

I = O=C(c1ccc([N+](=O)[O-])cc1)N1CCN(Cc2ccc(F)cc2)CC1
II = Cc1ccc(C(=O)N2CCN(Cc3ccc(F)cc3)CC2)c(C)c1
*Q* Field: lower pIC50 | Options: I / II Respond with the label that goes with your answer.
*A* II

====

Target Entity: Tyrosinase (Agaricus bisporus, UniProt O42713)
Test Method Notes: Inhibition of mushroom tyrosinase assessed as reduction in dopachrome production using L-DOPA as substrate after 5 mins by spectrophotometric analysis
Endpoint: IC50 (µM)

// solved cases for IC50 follow
1. O=C(c1ccc(Br)cc1)N1CCN(Cc2ccc(F)cc2)CC1    4.61
2. O=C(c1ccc(F)cc1F)N1CCN(Cc2ccc(F)cc2)CC1    1.91
3. O=C(c1ccc([N+](=O)[O-])cc1[N+](=O)[O-])N1CCN(Cc2ccc(F)cc2)CC1    0.96
4. COc1ccc(C(=O)N2CCN(Cc3ccc(F)cc3)CC2)c(OC)c1    1.4

1 = O=C(c1ccccc1Br)N1CCN(Cc2ccc(F)cc2)CC1
2 = Nc1ccc(C(=O)N2CCN(Cc3ccc(F)cc3)CC2)c(N)c1
*Q* Would you let me know which has the greater IC50 value, 1 or 2 ? Write the label of whichever entry you select.
*A* 2
(2: 3.67 µM, 1: 2.03 µM)

A = O=C(c1cccc(Br)c1)N1CCN(Cc2ccc(F)cc2)CC1
B = O=C(c1cccc(Cl)c1)N1CCN(Cc2ccc(F)cc2)CC1
*Q* // pick larger IC50 from pair: A vs B I would appreciate it if you answered with the label of your choice.
*A* B

a = O=C(c1cccc(C(F)(F)F)c1)N1CCN(Cc2ccc(F)cc2)CC1
b = O=C(c1ccc(Cl)cc1Cl)N1CCN(Cc2ccc(F)cc2)CC1
c = O=C(c1ccccc1Cl)N1CCN(Cc2ccc(F)cc2)CC1
d = O=C(c1ccc(O)cc1O)N1CCN(Cc2ccc(F)cc2)CC1
e = O=C(c1ccccc1C(F)(F)F)N1CCN(Cc2ccc(F)cc2)CC1
*Q* Sequence the entries by IC50, beginning with the highest number. The reply should contain the labels ordered as requested.
*A* a, c, d, b, e

====

Target Entity: UniProt:O42713
Test Method Notes: Inhibition of mushroom tyrosinase assessed as reduction in dopachrome production using L-DOPA as substrate after 5 mins by spectrophotometric analysis
Endpoint: IC50 (µM)

1. Nc1ccc(C(=O)N2CCN(Cc3ccc(F)cc3)CC2)cc1    14.7
2. O=C(c1cccc([N+](=O)[O-])c1)N1CCN(Cc2ccc(F)cc2)CC1    3.6

1 = O=C(c1ccc(Br)cc1Br)N1CCN(Cc2ccc(F)cc2)CC1
2 = O=C(c1ccc(C(F)(F)F)cc1)N1CCN(Cc2ccc(F)cc2)CC1
3 = Nc1ccccc1C(=O)N1CCN(Cc2ccc(F)cc2)CC1
*Q* Descending sort on IC50 required. Please express your ranking as an ordered list of the labels.
*A* 3, 2, 1
(3: 10.9 µM, 2: 3.38 µM, 1: 1.05 µM)

====

Target Entity: Tyrosinase (Agaricus bisporus, UniProt O42713)
Sequence (O42713 whole entry): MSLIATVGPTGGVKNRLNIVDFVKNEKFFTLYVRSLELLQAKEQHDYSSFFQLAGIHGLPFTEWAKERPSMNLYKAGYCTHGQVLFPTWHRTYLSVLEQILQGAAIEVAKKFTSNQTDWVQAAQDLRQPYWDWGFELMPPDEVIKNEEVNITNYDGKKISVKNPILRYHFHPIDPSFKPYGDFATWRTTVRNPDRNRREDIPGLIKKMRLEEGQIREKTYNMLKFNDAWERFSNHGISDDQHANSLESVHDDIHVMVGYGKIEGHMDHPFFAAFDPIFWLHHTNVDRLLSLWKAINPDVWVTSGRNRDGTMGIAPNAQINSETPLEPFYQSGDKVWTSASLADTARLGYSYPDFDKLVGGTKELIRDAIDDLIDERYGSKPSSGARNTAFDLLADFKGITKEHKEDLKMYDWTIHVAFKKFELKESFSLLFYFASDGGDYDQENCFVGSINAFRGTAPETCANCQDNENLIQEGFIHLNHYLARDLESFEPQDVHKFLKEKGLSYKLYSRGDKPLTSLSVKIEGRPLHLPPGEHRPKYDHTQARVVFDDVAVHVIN
Test Method Notes: Inhibition of mushroom tyrosinase assessed as reduction in dopachrome production using L-DOPA as substrate after 5 mins by spectrophotometric analysis
pIC50: −log10 of the molar value.
Endpoint: pIC50

1. O=C(c1ccc(Cl)cc1)N1CCN(Cc2ccc(F)cc2)CC1    5.45

a = Nc1cccc(C(=O)N2CCN(Cc3ccc(F)cc3)CC2)c1
b = O=C(c1ccccc1[N+](=O)[O-])N1CCN(Cc2ccc(F)cc2)CC1
*Q* Hi, I'm comparing two records. Which one has the lower pIC50, a or b ? Indicate which entry you chose by stating its label.
*A* a
